Study Target: sGC α1/β1 heterodimer (Homo sapiens, UniProt Q02108+Q02153)
Construct: expressed in transfected cells; host or cells: CHO-K1 (clone #7, CHO-K1/sGC)
Sequence (Q02108 whole entry): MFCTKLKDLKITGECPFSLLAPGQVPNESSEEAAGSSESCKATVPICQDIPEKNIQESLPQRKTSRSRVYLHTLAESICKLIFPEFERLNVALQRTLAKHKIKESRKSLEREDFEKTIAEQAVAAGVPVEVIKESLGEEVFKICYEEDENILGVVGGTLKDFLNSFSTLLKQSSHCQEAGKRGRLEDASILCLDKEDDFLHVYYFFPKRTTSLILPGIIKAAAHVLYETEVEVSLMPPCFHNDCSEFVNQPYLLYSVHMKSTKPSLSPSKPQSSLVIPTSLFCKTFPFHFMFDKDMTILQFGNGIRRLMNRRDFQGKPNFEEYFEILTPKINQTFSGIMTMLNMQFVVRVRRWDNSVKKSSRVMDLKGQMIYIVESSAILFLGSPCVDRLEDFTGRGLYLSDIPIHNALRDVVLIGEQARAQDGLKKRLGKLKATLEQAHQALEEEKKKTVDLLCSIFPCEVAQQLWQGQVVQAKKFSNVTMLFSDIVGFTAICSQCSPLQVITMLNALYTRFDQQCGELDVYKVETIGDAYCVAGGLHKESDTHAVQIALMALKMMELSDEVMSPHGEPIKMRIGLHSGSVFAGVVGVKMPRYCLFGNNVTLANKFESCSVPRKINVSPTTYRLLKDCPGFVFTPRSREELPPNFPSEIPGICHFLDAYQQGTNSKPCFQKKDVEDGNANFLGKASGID
Sequence (Q02153 whole entry): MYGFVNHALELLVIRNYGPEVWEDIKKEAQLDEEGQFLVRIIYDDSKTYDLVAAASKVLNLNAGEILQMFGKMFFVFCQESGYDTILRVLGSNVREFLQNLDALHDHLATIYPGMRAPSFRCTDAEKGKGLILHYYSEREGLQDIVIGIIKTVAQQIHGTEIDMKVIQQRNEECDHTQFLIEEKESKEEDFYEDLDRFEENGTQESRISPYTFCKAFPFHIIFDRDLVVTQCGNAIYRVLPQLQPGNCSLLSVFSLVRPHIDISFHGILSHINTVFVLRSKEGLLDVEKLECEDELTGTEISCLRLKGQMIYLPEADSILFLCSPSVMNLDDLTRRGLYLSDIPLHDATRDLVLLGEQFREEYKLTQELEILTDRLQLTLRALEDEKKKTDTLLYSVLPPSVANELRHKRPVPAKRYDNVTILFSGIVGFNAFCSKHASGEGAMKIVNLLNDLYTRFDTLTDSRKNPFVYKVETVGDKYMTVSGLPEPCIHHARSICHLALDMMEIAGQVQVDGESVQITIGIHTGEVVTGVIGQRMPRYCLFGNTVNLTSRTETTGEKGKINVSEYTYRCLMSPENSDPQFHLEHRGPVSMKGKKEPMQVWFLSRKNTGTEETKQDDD
Assay Method Text: Cell-Based sGC Functional Assay (CASA Assay), cGMP by HTRF in CHO-K1/sGC cells
Assay Conditions: cGMP production, 1 hr at 37° C., 4P fit, presence or absence of 1 μM DETA-NO not given, read-out: IP (nM) (inflection point)
Measurement Label: EC50 (nM)

// below: answered compounds
• Cc1nc(-c2cn3ccnc3c(CCC(F)(F)C(F)(F)F)n2)nc2c1C(C)(c1ccc(F)cc1)C(=O)N2 (stereo not shown) [Example 77A] = 170
• CCCCc1nc(-c2ncc3c(n2)NC(=O)C3(c2ccc(Cl)cc2)C2CC2)cn2ccnc12 (stereo not shown) [Example 49B] = 24

I: O=C1Nc2nc(-c3cn4ccnc4c(CCCC(F)(F)F)n3)ncc2C1(c1ccc(Cl)cc1)C1CC1 (stereo not shown) [Example 50B]
II: CC1(C(=O)NC2CC2)C(=O)Nc2nc(-c3cn4ccnc4c(Cc4ccc(F)cc4)n3)ncc21 (single isomer, unassigned) [Example 67A]
Q: Please let me know which one, I or II , has a lower measured EC50 value. Answer by stating the label of the chosen item.
Result: I
